# assay-remarks: Phase 1 SAD (Part A) plasma and urine pharmacokinetics in healthy subjects
# Assay type: in vivo, human
# study-conditions: both sexes, human, plasma, oral, part A (SAD), 100 to 2000 mg; read-out: AUC0-inf in the plasma of the subjects (range)
reported-endpoint: AUC(0-inf)

AUC(0-inf) recorded for this compound, CN(C)C/C=C/C(=O)N1CC(COc2cc(-c3ccc(O)cc3)cc3[nH]ncc23)C1 [compound of formula (I)] , is 2.7 to 172 ng·h/mL

====

# assay-remarks: Phase 1 MAD (Part B) plasma pharmacokinetics in healthy subjects
# Type: in vivo, human
# study-conditions: human, plasma, oral, part B (MAD), 100 to 1000 mg BID; read-out: AUCss0-12 in the plasma of the subjects (range)
reported-endpoint: AUC

get_value(item= CN(C)C/C=C/C(=O)N1CC(COc2cc(-c3ccc(O)cc3)cc3[nH]ncc23)C1 , readout=AUC) returns 5.43 to 88.5 ng·h/mL

====

# assay-remarks: Phase 1 MAD (Part B) plasma pharmacokinetics in healthy subjects
# Format: in vivo, human
# study-conditions: human, plasma, oral, part B (MAD), 100 to 1000 mg BID; read-out: average AUCss0-12
reported-endpoint: AUC

Entry under test: CN(C)C/C=C/C(=O)N1CC(COc2cc(-c3ccc(O)cc3)cc3[nH]ncc23)C1 . Its AUC was 8.94 to 62.1 ng·h/mL

====

# assay-remarks: Phase 1 SAD (Part A) plasma and urine pharmacokinetics in healthy subjects
# Format: in vivo, human
# study-conditions: human; plasma, single oral dose 100 mg, n = 6; read-out: t1/2, mean (SD) (converted)
reported-endpoint: half-life (h)
Give the quantity in h, number only.

The value of half-life measured for the compound CN(C)C/C=C/C(=O)N1CC(COc2cc(-c3ccc(O)cc3)cc3[nH]ncc23)C1 turned out to be 17.5

====

# assay-remarks: Phase 1 MAD (Part B) plasma pharmacokinetics in healthy subjects
# Format: in vivo, human
# study-conditions: human, plasma, oral, 1000 mg, highest tested dose (1000 mg BID); read-out: mean Cmax,ss (maximum observed concentration at steady-state)
reported-endpoint: Cmax (ng/mL)
Please respond with the number in ng/mL and leave the unit unwritten.

Entry under test: CN(C)C/C=C/C(=O)N1CC(COc2cc(-c3ccc(O)cc3)cc3[nH]ncc23)C1 . Its Cmax was 13

====

# assay-remarks: Phase 1 SAD (Part A) plasma and urine pharmacokinetics in healthy subjects
# Format: in vivo, human
# study-conditions: human, plasma, po, 2000 mg, plasma, single oral dose 2000 mg, n = 6; read-out: AUCinf, mean (SD)
reported-endpoint: AUC(0-inf)
Please report the result as a number followed by the unit.

The reported AUC(0-inf) of the compound CN(C)C/C=C/C(=O)N1CC(COc2cc(-c3ccc(O)cc3)cc3[nH]ncc23)C1 [compound of formula (I)] was 96 ng·h/mL

====

# assay-remarks: Phase 1 SAD (Part A) plasma and urine pharmacokinetics in healthy subjects
# Type: in vivo, human
# study-conditions: human; plasma, single oral dose 1000 mg, n = 6; read-out: Cmax, mean (SD)
reported-endpoint: Cmax (ng/mL)
Your answer is read as ng/mL, so omit the unit and give the number.

The compound identified as CN(C)C/C=C/C(=O)N1CC(COc2cc(-c3ccc(O)cc3)cc3[nH]ncc23)C1 registered its Cmax at 4.8

====

# assay-remarks: Phase 1 MAD (Part B) plasma pharmacokinetics in healthy subjects
# Type: in vivo, human
# study-conditions: both sexes, human, plasma, oral, 300 mg, plasma, Day 1 (morning dose), 300 mg BID, n = 6; read-out: AUC0-12, mean (SD)
reported-endpoint: AUC(0-t) (ng·h/mL)
Respond numerically; units are ng·h/mL and should not be typed.

Entry CN(C)C/C=C/C(=O)N1CC(COc2cc(-c3ccc(O)cc3)cc3[nH]ncc23)C1 , AUC(0-t) reported as 8.5

====

# assay-remarks: Phase 1 MAD (Part B) plasma pharmacokinetics in healthy subjects
# Assay type: in vivo, human
# study-conditions: both sexes, human, plasma, oral, 300 mg, plasma, Day 10 (morning dose), 300 mg BID, n = 6; read-out: AUC0-12,ss, mean (SD)
reported-endpoint: AUC(0-t) (ng·h/mL)
Give just the numeric value; ng·h/mL need not be written.

CN(C)C/C=C/C(=O)N1CC(COc2cc(-c3ccc(O)cc3)cc3[nH]ncc23)C1 [compound of formula (I)] yielded AUC(0-t) of 16.9

====

# assay-remarks: Phase 1 MAD (Part B) plasma pharmacokinetics in healthy subjects
# Format: in vivo, human
# study-conditions: both sexes, human, plasma, oral, 100 mg, plasma, Day 1 (morning dose), 100 mg BID, n = 6; read-out: AUC0-12, mean (SD)
reported-endpoint: AUC(0-t) (ng·h/mL)
# output: bare number, implied unit ng·h/mL

AUC(0-t) recorded for this compound, CN(C)C/C=C/C(=O)N1CC(COc2cc(-c3ccc(O)cc3)cc3[nH]ncc23)C1 [compound of formula (I)] , is 3.5

====

# assay-remarks: Phase 1 MAD (Part B) plasma pharmacokinetics in healthy subjects
# Format: in vivo, human
# study-conditions: human, oral; plasma, Day 1 (morning dose), 100 mg BID, n = 6; read-out: Tmax, median (min, max)
reported-endpoint: Tmax (h)
Numbers only; they are read as h.

Recorded result, CN(C)C/C=C/C(=O)N1CC(COc2cc(-c3ccc(O)cc3)cc3[nH]ncc23)C1 , Tmax: 1.5

====

# assay-remarks: Phase 1 MAD (Part B) plasma pharmacokinetics in healthy subjects
# Type: in vivo, human
# study-conditions: human, plasma, oral; multiple doses up to 1000 mg BID; read-out: Plasma concentrations
reported-endpoint: concentration at 10 days

Documented concentration at 10 days of CN(C)C/C=C/C(=O)N1CC(COc2cc(-c3ccc(O)cc3)cc3[nH]ncc23)C1 : < 35 ng/mL

====

# assay-remarks: Phase 1 MAD (Part B) plasma pharmacokinetics in healthy subjects
# Assay type: in vivo, human
# study-conditions: both sexes, human, plasma, oral, 1000 mg, plasma, Day 10 (morning dose), 1000 mg BID, n = 6; read-out: Cmax,ss, mean (SD)
reported-endpoint: Cmax (ng/mL)
State the answer as a number, implicitly in ng/mL.

Recorded result, CN(C)C/C=C/C(=O)N1CC(COc2cc(-c3ccc(O)cc3)cc3[nH]ncc23)C1 , Cmax: 13.3

====

# assay-remarks: Phase 1 SAD (Part A) plasma and urine pharmacokinetics in healthy subjects
# Assay type: in vivo, human
# study-conditions: human; plasma, single oral dose 300 mg, n = 6; read-out: Tmax, median (min, max)
reported-endpoint: Tmax (h)
Hi! Could you send only the number? It should be in h, unit omitted.

Lookup result for CN(C)C/C=C/C(=O)N1CC(COc2cc(-c3ccc(O)cc3)cc3[nH]ncc23)C1 [compound of formula (I)] ; measured Tmax: 1

====

# assay-remarks: Phase 1 pharmacokinetics across all SAD and MAD cohorts
# Assay type: in vivo
# study-conditions: human, plasma, oral; across all doses in the SAD and MAD cohorts; read-out: mean terminal elimination half-life
reported-endpoint: half-life

half-life recorded for this compound, CN(C)C/C=C/C(=O)N1CC(COc2cc(-c3ccc(O)cc3)cc3[nH]ncc23)C1 , is 15 to 20 h

====

# assay-remarks: Phase 1 SAD (Part A) plasma and urine pharmacokinetics in healthy subjects
# Format: in vivo, human
# study-conditions: human, plasma, po, 1000 mg, plasma, single oral dose 1000 mg, one subject excluded; read-out: AUCinf, mean (SD)
reported-endpoint: AUC(0-inf) (ng·h/mL)
Write the number in ng·h/mL without appending the unit.

Value of measured AUC(0-inf) for the entry CN(C)C/C=C/C(=O)N1CC(COc2cc(-c3ccc(O)cc3)cc3[nH]ncc23)C1 : 47

====

# assay-remarks: Phase 1 SAD (Part A) plasma and urine pharmacokinetics in healthy subjects
# Type: in vivo, human
# study-conditions: human; plasma, single oral dose 300 mg, n = 6; read-out: Cmax, mean (SD)
reported-endpoint: Cmax (ng/mL)
Value expressed in ng/mL; do not type the unit.

# Cmax of CN(C)C/C=C/C(=O)N1CC(COc2cc(-c3ccc(O)cc3)cc3[nH]ncc23)C1 = 3.4

====

# assay-remarks: Phase 1 SAD (Part A) plasma and urine pharmacokinetics in healthy subjects
# Format: in vivo, human
# study-conditions: human; plasma, single oral dose 1000 mg, one subject excluded; read-out: t1/2, mean (SD) (converted)
reported-endpoint: half-life
Report field: quantity (unit follows the number).

GET /value?item= CN(C)C/C=C/C(=O)N1CC(COc2cc(-c3ccc(O)cc3)cc3[nH]ncc23)C1 [compound of formula (I)] &field=half-life returns 16.6 h

====

# assay-remarks: Phase 1 MAD (Part B) plasma pharmacokinetics in healthy subjects
# Format: in vivo, human
# study-conditions: both sexes, human, plasma, oral, 1000 mg, plasma, Day 1 (morning dose), 1000 mg BID, n = 6; read-out: AUC0-12, mean (SD)
reported-endpoint: AUC(0-t) (ng·h/mL)
The figure you give is taken to be in ng·h/mL; do not add the unit.

Query CN(C)C/C=C/C(=O)N1CC(COc2cc(-c3ccc(O)cc3)cc3[nH]ncc23)C1 yields AUC(0-t) of 37.4
